Recorded apparent KD of MS2 coat protein by entry
Test system: MS2 coat protein
Experiment: apparent KD of MS2 coat protein; designed switch direction (-1 OFF switch, 1 ON switch): 1; higher = weaker reporter binding
Conditions: Eterna round: R95; input ligand: none
Field: numeric (nM). Do not append units.

Worked examples, 2 sequences total:
[[record]]
residue_sequence = "AUAAAACAUGAGGAUCACCCAUGUCUACAAAGUCGAGGAUAUGGGCAAAUAAUAUAAGAACCAGAAGGCGAAUAAU [SS1 Teenbexe 1] (puzzle: Same State 1)"
endpoint = "apparent KD of MS2 coat protein"
observed_value = 14400

[[record]]
residue_sequence = "GUGGUGUAGAUACAGGAUAUGUUGCUCGUAACAUGAGGAUCACCCAUGUAUCUAUGAGAAUAAAUGCAGAAGGGUGCACACCACG [Mat - Same State 2 - Mod of UCT - D73] (puzzle: Same State 2)"
endpoint = "apparent KD of MS2 coat protein"
observed_value = 311


Now turn to the next sequence.
Reported apparent KD of MS2 coat protein, sequence ACAAGACAUGAGGAUCACCCAUGUAUAAAUUACACAGGAUAUCGGCGGACCGCACCCGCACGAGAAGGGUGACUUC [Eszaleer] (puzzle: Same State 1) : ____
24.7

// data source = the supplement of paper PMC9170038
